assay: in vitro; format: cell-based; settings: human
observable: CC50

Reference set, count: 2
- Cc1ccc(NC(=O)c2ccccc2)cc1Nc1nccn1-c1cc(NC2CCCC2)ncn1 [Compound 1]: > 50 µM
- c1ccc(-c2nc3cc(Nc4nccn4-c4cc(NC5CCCC5)ncn4)ccc3[nH]2)cc1 [Compound 2]: > 50 µM

// fetch CC50 given entry Cc1ccc(C(=O)N2CCOCC2)cc1Nc1nccn1-c1cc(NC2CC2)ncn1 [Compound 3]
> 50 µM

* * *

assay: in vivo; type: in vivo, CD-1 female mice; settings: female, CD-1, mouse, in vivo, po, 100 mg/kg
observable: bioavailability (%)
Reply numerically in %, unit not repeated.

// fetch bioavailability given entry Cc1ccc(C(=O)N2CCOCC2)cc1Nc1nccn1-c1cc(NC2CC2)ncn1 [Compound 3]
50
